- Protocol Description: Midazolam plasma concentration (HPLC) and one-compartment PK after placebo or piperine pretreatment in healthy volunteers
- Reported Conditions: both, human, plasma, po, 10 mg
Quantity Measured: half-life (h)
Answer with a number only, understood to be in h.

Prompt line: Would you kindly share the measured half-life for Cc1ncc2n1-c1ccc(Cl)cc1C(c1ccccc1F)=NC2 ?
Response line: 1.71

====

- Protocol Description: Midazolam plasma concentration (HPLC) and one-compartment PK after placebo or piperine pretreatment in healthy volunteers
- Reported Conditions: both, human, plasma, po, 10 mg
Quantity Measured: AUC(0-t) (ng·h/mL)
Answer with a number only, understood to be in ng·h/mL.

Prompt line: Would you kindly share the measured AUC(0-t) for Cc1ncc2n1-c1ccc(Cl)cc1C(c1ccccc1F)=NC2 ?
Response line: 411
